Values compiled from paper PMC5944028.

Protocol notes: Monkey plasma pharmacokinetics, single oral dose
Assay type: in vivo, cynomolgus monkeys (Macaca fascicularis)
Experimental setup: 10 µmol/kg p.o. single dose, geometric mean (CV%)
Parameter measured: Cmax (nM)

>  <Cpd smiles>
C#C[C@@H]1CN(C(=O)[C@H](CC(C)C)NC(=O)c2ccc(-c3nc(N4CCN(C)CC4)sc3F)cc2)[C@@H]2C(=O)CO[C@H]12

>  <Unit text>
nM

>  <Assay result>
164

$$$$

###

Subject of test: dog cathepsin K (Canis lupus familiaris, UniProt Q3ZKN1)
Construct: made in house; host or cells: E. coli
Sequence (Q3ZKN1 116-330): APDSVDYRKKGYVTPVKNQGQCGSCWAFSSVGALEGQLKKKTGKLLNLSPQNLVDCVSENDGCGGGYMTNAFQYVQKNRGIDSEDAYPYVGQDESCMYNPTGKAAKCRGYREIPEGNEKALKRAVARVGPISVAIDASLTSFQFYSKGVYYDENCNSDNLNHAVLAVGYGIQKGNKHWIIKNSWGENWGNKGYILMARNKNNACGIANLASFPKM
Protocol notes: Recombinant enzyme assay, dog cathepsin K
Type: biochemical
Experimental setup: geometric mean

>  <Compound>
C#C[C@@H]1CN(C(=O)[C@H](CC(C)C)NC(=O)c2ccc(-c3nc(N4CCN(C)CC4)sc3F)cc2)[C@@H]2C(=O)CO[C@H]12 [MIV-711]

>  <Subject of test>
dog cathepsin K (Canis lupus familiaris, UniProt Q3ZKN1)

>  <Ki (nM)>
1.5

$$$$
